Target: dopamine D2L receptor (Homo sapiens)
Construct: host or cells: HEK-293 cells (membrane homogenates)
Assay: Dopamine D2L receptor radioligand binding (HEK-293)
Settings: read-out: D2L Binding IC50
Protocol: α1 Adrenergic and Dopamine D2 Receptors. Methods: Binding and functional assays for α1 adrenergic and dopamine D2 receptors were performed by Eurofins Cerep according to their methods. Dopamine D2 Receptor. Binding at 10 μM. The binding assay evaluated the affinity of test articles for the dopamine D2 receptor in transfected human embryonic kidney (HEK)-293 cells. […] Results are expressed as mean percent inhibition of control radioligand binding. […]

{"structure-notation": "O=C1CC[C@H](N2Cc3c(OCc4ccc(CN5CCN(c6ccc(F)cc6F)CC5)cc4)cccc3C2=O)C(=O)N1", "IC50 [nM]": 84}

###

system: CYP3A4/5; assay: CYP inhibition in pooled human liver microsomes; format: in vitro ADME; details: 30 minute preincubation with NADPH; substrate midazolam; read-out: shifted IC50 value (with NADPH) CYP3A4/5, midazolam

{"structure-notation": "O=C1CC[C@H](N2Cc3c(OCc4ccc(CN5CCN(c6ccc(F)cc6F)CC5)cc4)cccc3C2=O)C(=O)N1", "IC50 / nM": 2230}

###

molecular target: dopamine D2S receptor (Homo sapiens); construct: host or cells: HEK-293 cells (membrane homogenates); assay: Dopamine D2S receptor radioligand binding (HEK-293); details: read-out: D2S Binding IC50
Sequence (P14416 1-414 isoform P14416-2): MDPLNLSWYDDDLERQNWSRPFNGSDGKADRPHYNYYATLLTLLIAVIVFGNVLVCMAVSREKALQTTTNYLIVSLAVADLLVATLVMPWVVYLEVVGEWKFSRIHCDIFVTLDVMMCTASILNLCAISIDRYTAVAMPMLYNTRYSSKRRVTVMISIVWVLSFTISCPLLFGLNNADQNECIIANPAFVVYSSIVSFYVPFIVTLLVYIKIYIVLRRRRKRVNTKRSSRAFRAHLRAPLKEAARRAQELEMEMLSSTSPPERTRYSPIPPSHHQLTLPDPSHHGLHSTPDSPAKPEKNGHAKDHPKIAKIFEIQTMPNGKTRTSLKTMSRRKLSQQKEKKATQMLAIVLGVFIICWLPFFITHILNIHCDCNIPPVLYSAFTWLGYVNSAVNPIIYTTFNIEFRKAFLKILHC
measured-attribute: IC50 (nM)

{"molecule": "O=C1CCC(N2Cc3c(OCc4ccc(CN5CCN(c6ccc(F)cc6F)CC5)cc4)cccc3C2=O)C(=O)N1 (racemic) [Compound A]", "study-system": "dopamine D2S receptor (Homo sapiens)", "measured-attribute": "IC50", "units-label": "nM", "observed-value": 150}

###

Molecular target: CYP2C9 (Homo sapiens, UniProt P11712)
Construct: from tissue; host or cells: pooled human liver microsomes
Sequence (P11712 whole entry): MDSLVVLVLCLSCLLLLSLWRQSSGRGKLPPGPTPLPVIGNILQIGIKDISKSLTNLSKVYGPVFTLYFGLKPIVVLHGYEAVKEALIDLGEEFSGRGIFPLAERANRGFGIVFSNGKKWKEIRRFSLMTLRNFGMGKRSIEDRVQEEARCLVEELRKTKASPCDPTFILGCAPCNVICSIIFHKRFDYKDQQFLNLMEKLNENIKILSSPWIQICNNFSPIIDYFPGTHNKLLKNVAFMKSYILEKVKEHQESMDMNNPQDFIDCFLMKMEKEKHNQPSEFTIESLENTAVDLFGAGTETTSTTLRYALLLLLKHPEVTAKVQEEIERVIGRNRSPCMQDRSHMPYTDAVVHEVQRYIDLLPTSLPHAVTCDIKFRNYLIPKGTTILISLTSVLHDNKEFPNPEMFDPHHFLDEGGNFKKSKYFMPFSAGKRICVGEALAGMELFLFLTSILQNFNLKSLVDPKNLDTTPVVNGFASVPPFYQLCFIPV
Test: CYP inhibition in pooled human liver microsomes
Assay type: in vitro ADME
Conditions: human, microsomes
Protocol: Methods. […] In addition, the compounds were evaluated for their potential to act as a time-dependent inhibitors at the same concentrations mentioned above. […] Following the incubation, concentrations of probe substrate metabolites were quantified using established LC/MS/MS methods. The extent of inhibition was expressed as the percentage of control activity.
measured-attribute: inhibition at 30 µM

{"structure-notation": "N#Cc1ccc(N2CCN(Cc3ccc(COc4cccc5c4CN([C@H]4CCC(=O)NC4=O)C5=O)cc3)CC2)c(F)c1", "measured-attribute": "inhibition at 30 µM", "observed-value": "≤ 30%"}

###

molecules and their reported IC50
system: KMS34; test: Flow cytometry proliferation/apoptosis assay (120 h); format: cell-based, human; conditions: Homo sapiens, KMS-34, KMS34, read-out: Antiproliferative Activity (Flow Cytometry) IC50
measured-attribute: IC50 (nM)

{"molecule": "N#Cc1ccc(N2CCN(Cc3ccc(COc4cccc5c4CN([C@H]4CCC(=O)NC4=O)C5=O)cc3)CC2)c(F)c1 [Compound 2]", "units-label": "nM", "operator-symbol": "=", "observed-value": 0.45}
{"molecule": "Nc1cccc2c1C(=O)N(C1CCC(=O)NC1=O)C2=O (centres unmarked) [Pomalidomide, pomalidomide]", "units-label": "nM", "operator-symbol": ">", "observed-value": 10000}

###

system: CYP3A4/5; test: CYP inhibition in pooled human liver microsomes; assay type: in vitro ADME; details: human, microsomes
pIC50: −log10 of the molar value.
measured-attribute: pIC50

{"compound": "N#Cc1ccc(N2CCN(Cc3ccc(COc4cccc5c4CN([C@H]4CCC(=O)NC4=O)C5=O)cc3)CC2)c(F)c1 [Compound 2]", "study-system": "CYP3A4/5", "observed-value": "< 4.52"}

###

tested on: JJN-3; test: Flow cytometry proliferation/apoptosis assay (120 h); type: cell-based, human; conditions: Homo sapiens, JJN-3, 120 h, read-out: Antiproliferative Activity (Flow Cytometry) IC50
pIC50: −log10 of the molar value.

{"structure-notation": "N#Cc1ccc(N2CCN(Cc3ccc(COc4cccc5c4CN([C@H]4CCC(=O)NC4=O)C5=O)cc3)CC2)c(F)c1", "study-system": "JJN-3", "pIC50": 10.00}

###

test system: CYP3A4/5; assay: CYP inhibition in pooled human liver microsomes; type: in vitro ADME; conditions: substrate testosterone; read-out: direct inhibition IC50 CYP3A4/5 (testosterone)
pIC50: −log10 of the molar value.

{"structure-notation": "O=C1CC[C@H](N2Cc3c(OCc4ccc(CN5CCN(c6ccc(F)cc6F)CC5)cc4)cccc3C2=O)C(=O)N1", "pIC50": 5.53}

###

test: in vivo; conditions: male, CD-IGS, rat, po, 300 mg/kg/day
compounds and their reported AUC(0-t)

{"compound": "N#Cc1ccc(N2CCN(Cc3ccc(COc4cccc5c4CN(C4CCC(=O)NC4=O)C5=O)cc3)CC2)c(F)c1 (racemic)", "units-label": "µM·h", "AUC(0-t)": 514}
{"compound": "O=C1CCC(N2Cc3c(OCc4ccc(CN5CCN(c6ccc(F)cc6F)CC5)cc4)cccc3C2=O)C(=O)N1 (racemic)", "units-label": "µM·h", "AUC(0-t)": 1230}

###

System: CYP3A4/5
Assay: CYP inhibition in pooled human liver microsomes
Type: in vitro ADME
Details: human, microsomes, inhibition of CYP3A4/5 (testosterone) activity after preincubation with NADPH
Protocol: Methods. […] In addition, the compounds were evaluated for their potential to act as a time-dependent inhibitors at the same concentrations mentioned above. […] Following the incubation, concentrations of probe substrate metabolites were quantified using established LC/MS/MS methods. The extent of inhibition was expressed as the percentage of control activity.

{"structure-notation": "N#Cc1ccc(N2CCN(Cc3ccc(COc4cccc5c4CN([C@H]4CCC(=O)NC4=O)C5=O)cc3)CC2)c(F)c1", "inhibition at 30 µM (%)": 59}

###

system: CAG; test: Flow cytometry proliferation/apoptosis assay (120 h); type: cell-based, human; details: Homo sapiens, read-out: Antiproliferative Activity (Flow Cytometry) IC50
compounds and their reported IC50

{"compound": "Nc1cccc2c1C(=O)N(C1CCC(=O)NC1=O)C2=O (centres unmarked) [Pomalidomide, pomalidomide]", "IC50": "1080 nM"}
{"compound": "N#Cc1ccc(N2CCN(Cc3ccc(COc4cccc5c4CN([C@H]4CCC(=O)NC4=O)C5=O)cc3)CC2)c(F)c1", "IC50": "0.12 nM"}

###

Target: CYP2C19 (Homo sapiens)
Construct: from tissue; host or cells: pooled human liver microsomes
Sequence (P33261 whole entry): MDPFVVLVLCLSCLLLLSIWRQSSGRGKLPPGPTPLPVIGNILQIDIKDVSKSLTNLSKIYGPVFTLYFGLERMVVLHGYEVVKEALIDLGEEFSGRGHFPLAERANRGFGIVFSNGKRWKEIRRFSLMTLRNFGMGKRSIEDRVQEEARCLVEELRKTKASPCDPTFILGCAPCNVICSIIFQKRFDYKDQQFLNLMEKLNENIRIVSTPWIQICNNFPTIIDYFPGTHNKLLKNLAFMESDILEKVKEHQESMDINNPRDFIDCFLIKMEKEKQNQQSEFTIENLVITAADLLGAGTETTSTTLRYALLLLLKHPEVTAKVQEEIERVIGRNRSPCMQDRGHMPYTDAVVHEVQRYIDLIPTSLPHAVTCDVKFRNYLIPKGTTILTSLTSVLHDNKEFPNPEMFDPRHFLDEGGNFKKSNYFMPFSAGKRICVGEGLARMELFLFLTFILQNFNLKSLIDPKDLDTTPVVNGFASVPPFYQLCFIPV
Assay: CYP inhibition in pooled human liver microsomes
Format: in vitro ADME
Settings: human, microsomes
Method: Methods. […] In addition, the compounds were evaluated for their potential to act as a time-dependent inhibitors at the same concentrations mentioned above. […] Following the incubation, concentrations of probe substrate metabolites were quantified using established LC/MS/MS methods. The extent of inhibition was expressed as the percentage of control activity.

{"structure-notation": "N#Cc1ccc(N2CCN(Cc3ccc(COc4cccc5c4CN([C@H]4CCC(=O)NC4=O)C5=O)cc3)CC2)c(F)c1", "study-system": "CYP2C19 (Homo sapiens)", "units-label": "%", "inhibition at 30 µM": 41}

###

target: dopamine D2S receptor (Homo sapiens); construct: host or cells: HEK-293 cells (membrane homogenates); assay: Dopamine D2S receptor radioligand binding (HEK-293)

{"molecule": "N#Cc1ccc(N2CCN(Cc3ccc(COc4cccc5c4CN(C4CCC(=O)NC4=O)C5=O)cc3)CC2)c(F)c1 (racemic) [Compound 1]", "IC50 / µM": 7.4}

###

biological target: dopamine D2L receptor (Homo sapiens, UniProt P14416); construct: host or cells: HEK-293 cells (membrane homogenates); assay: Dopamine D2L receptor radioligand binding (HEK-293)
Sequence (P14416 whole entry): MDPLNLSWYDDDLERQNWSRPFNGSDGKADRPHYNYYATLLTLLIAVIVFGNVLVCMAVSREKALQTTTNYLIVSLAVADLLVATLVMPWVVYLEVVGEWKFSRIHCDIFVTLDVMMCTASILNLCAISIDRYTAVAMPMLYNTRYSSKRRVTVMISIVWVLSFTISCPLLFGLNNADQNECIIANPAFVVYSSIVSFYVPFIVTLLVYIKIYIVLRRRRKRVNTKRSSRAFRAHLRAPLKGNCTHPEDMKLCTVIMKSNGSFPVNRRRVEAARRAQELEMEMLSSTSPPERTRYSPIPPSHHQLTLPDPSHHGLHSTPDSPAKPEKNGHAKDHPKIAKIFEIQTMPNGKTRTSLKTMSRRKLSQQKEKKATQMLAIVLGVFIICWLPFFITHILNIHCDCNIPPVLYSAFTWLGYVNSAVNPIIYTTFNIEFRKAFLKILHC
pIC50: −log10 of the molar value.

{"compound": "N#Cc1ccc(N2CCN(Cc3ccc(COc4cccc5c4CN(C4CCC(=O)NC4=O)C5=O)cc3)CC2)c(F)c1 (racemic)", "pIC50": 5.64}
